# System: Staphylococcus aureus
# MEASUREMENT NOTES: Antibacterial activity against Staphylococcus aureus NCIM 2079 assessed as diameter of growth zone inhibition after 24 hr by disk diffusion method; also: test concentration or dose not given here
# Assay type: functional
Readings of diameter of the inhibition zone (DIZ) for the listed compounds
VALUE TYPE: diameter of the inhibition zone (DIZ) (mm)

ITEM SMILES	READOUT UNITS	OBSERVED RESULT
Cc1cc(/N=C2\C(=O)Nc3ccc(OC(F)(F)F)cc32)ccc1N1C(=O)c2ccc(Cl)cc2C1=O	mm	18
Cc1cc(/N=C2\C(=O)N(Cc3ccccc3)c3ccc([N+](=O)[O-])cc32)ccc1N1C(=O)c2ccc(Cl)cc2C1=O	mm	12
Cc1cc(/N=C2\C(=O)N(Cc3ccccc3)c3ccc(OC(F)(F)F)cc32)ccc1N1C(=O)c2ccc(Cl)cc2C1=O	mm	14
Cc1cc(/N=C2\C(=O)N(S(C)(=O)=O)c3ccc([N+](=O)[O-])cc32)ccc1N1C(=O)c2ccc(Cl)cc2C1=O	mm	16

====

# Tested on: Proteus vulgaris
# MEASUREMENT NOTES: Antibacterial activity against Proteus vulgaris NCIM 2027 assessed as diameter of growth zone inhibition after 24 hr by disk diffusion method; also: test concentration or dose not given here
# Type: functional
VALUE TYPE: diameter of the inhibition zone (DIZ) (mm)

ITEM SMILES	OBSERVED RESULT
C#CCN1C(=O)/C(=N\c2ccc(N3C(=O)c4ccc(Cl)cc4C3=O)c(C)c2)c2cc([N+](=O)[O-])ccc21	10
Cc1cc(/N=C2\C(=O)N(Cc3ccccc3)c3ccc(OC(F)(F)F)cc32)ccc1N1C(=O)c2ccc(Cl)cc2C1=O	12
Cc1cc(/N=C2\C(=O)Nc3ccc([N+](=O)[O-])cc32)ccc1N1C(=O)c2ccc(Cl)cc2C1=O	11
Cc1cc(/N=C2\C(=O)N(S(=O)(=O)C(F)(F)F)c3ccc(OC(F)(F)F)cc32)ccc1N1C(=O)c2ccc(Cl)cc2C1=O	20
C#CCN1C(=O)/C(=N\c2ccc(N3C(=O)c4ccc(Cl)cc4C3=O)c(C)c2)c2cc(OC(F)(F)F)ccc21	14
Cc1cc(/N=C2\C(=O)N(S(=O)(=O)c3ccc([N+](=O)[O-])cc3)c3ccc([N+](=O)[O-])cc32)ccc1N1C(=O)c2ccc(Cl)cc2C1=O	14
CCCN1C(=O)/C(=N\c2ccc(N3C(=O)c4ccc(Cl)cc4C3=O)c(C)c2)c2cc([N+](=O)[O-])ccc21	12
Cc1cc(/N=C2\C(=O)N(Cc3ccccc3)c3ccc([N+](=O)[O-])cc32)ccc1N1C(=O)c2ccc(Cl)cc2C1=O	14
Cc1cc(/N=C2\C(=O)N(S(=O)(=O)c3ccc([N+](=O)[O-])cc3)c3ccc(OC(F)(F)F)cc32)ccc1N1C(=O)c2ccc(Cl)cc2C1=O	22
Cc1ccc2c(c1)/C(=N/c1ccc(N3C(=O)c4ccc(Cl)cc4C3=O)c(C)c1)C(=O)N2	10
Cc1cc(/N=C2\C(=O)N(S(C)(=O)=O)c3ccc([N+](=O)[O-])cc32)ccc1N1C(=O)c2ccc(Cl)cc2C1=O	14
Cc1cc(/N=C2\C(=O)N(S(C)(=O)=O)c3ccc(OC(F)(F)F)cc32)ccc1N1C(=O)c2ccc(Cl)cc2C1=O	16
Cc1cc(/N=C2\C(=O)Nc3ccc(OC(F)(F)F)cc32)ccc1N1C(=O)c2ccc(Cl)cc2C1=O	14
O=C(O)c1cn(C2CC2)c2cc(N3CCNCC3)c(F)cc2c1=O	28

These entries and their values trace back to ChEMBL document CHEMBL3045563.
